Data provenance is paper PMC7819943.

# key: entry, value: binding signal
Target: OsSMF1 (Oryza sativa, UniProt Q6ZLB0 1-436)
Sequence: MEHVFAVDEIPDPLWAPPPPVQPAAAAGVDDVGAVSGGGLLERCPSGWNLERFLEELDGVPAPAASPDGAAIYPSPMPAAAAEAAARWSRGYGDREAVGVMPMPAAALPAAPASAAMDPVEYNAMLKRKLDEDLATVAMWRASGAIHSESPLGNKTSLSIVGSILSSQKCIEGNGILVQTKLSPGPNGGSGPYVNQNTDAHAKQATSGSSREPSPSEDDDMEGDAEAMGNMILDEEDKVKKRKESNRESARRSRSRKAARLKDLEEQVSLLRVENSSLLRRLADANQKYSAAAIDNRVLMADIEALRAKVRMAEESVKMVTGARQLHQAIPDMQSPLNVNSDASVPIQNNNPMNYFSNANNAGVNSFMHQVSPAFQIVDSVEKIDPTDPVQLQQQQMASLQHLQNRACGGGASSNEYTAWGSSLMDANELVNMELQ
Assay: protein-binding microarray (RPBM); PBS, 2% BSA, 51.3 ng/ul salmon testes DNA, 50 uM zinc acetate, 200 nM TF, 25 C, 1 h; high values mean tight binding
Conditions: protein: recombinant; tags: N-terminal polyhistidine and DsRed monomer fusion (pET32a); chain copies: 2; label: CyDye5-dUTP incorporated in the synthesized complementary strand; 3' TTTTT single-stranded linker to array surface; dsDNA, one strand shown
Over roughly 39,000 sequences, “fluorescence intensity (a.u.)” has its median near 4,300; the highest 2% begin near 39,000. The full list was thinned out, with the highest values kept by preference.
recorded metric: binding signal

>>> observed("AAATCCGCCCTCGCCTCGCCCCGATCGATCCCCTCGATTCCGGAGTCACCTAGTGCAG")
"3810 fluorescence intensity (a.u.)"
>>> observed("CCGAGTCAATACTGCCACGTAGCGCGCCACGTCAGCGAAACGGAGTCACCTAGTGCAG")
"26300 fluorescence intensity (a.u.)"
>>> observed("GAAGGCGGCGCGGAAGTCGGCGCCGGCGACCGGCGGCGTGCGGAGTCACCTAGTGCAG")
"9120 fluorescence intensity (a.u.)"
>>> observed("CCCAGCCCGGCGTCCCCTTCTCGGCTTCCTCCTCCACCATCGGAGTCACCTAGTGCAG")
"4100 fluorescence intensity (a.u.)"
>>> observed("GCCACCGCTGCATCATCCCGCCTGTCTGCCTGCGCGCGCCCGGAGTCACCTAGTGCAG")
"3430 fluorescence intensity (a.u.)"
>>> observed("CACTCCCATTCCCATCCTCCACATCCCGCGCCATCGACCTCGGAGTCACCTAGTGCAG")
"3400 fluorescence intensity (a.u.)"
>>> observed("GCCCACGCTCACCGACTCCATCGACGTCACGCTCACCGCCCGGAGTCACCTAGTGCAG")
"5090 fluorescence intensity (a.u.)"
>>> observed("CAAACAAGCCACGTAGATGCCACGTCATCCAAAACCGCCTCGGAGTCACCTAGTGCAG")
"29600 fluorescence intensity (a.u.)"
>>> observed("GCTTCTGCTGTGGCTGTGCTGAGCTTTCACAGTCACAGCCCGGAGTCACCTAGTGCAG")
"3550 fluorescence intensity (a.u.)"
